- Test system: c-Abl (mouse)
- Assay: phosphorylation enrichment, bacterial display (enrichment ratio); higher = better substrate or ligand; peptides without Tyr show the background
Listing of recorded phosphorylation enrichment by entry.
Give a plain numeric answer without units written out.

LSEEKYELKEG [TREM1_Y29_T25S] : 0.875

Ask | Enter phosphorylation enrichment (test system c-Abl (mouse)) for NRKGKYFNVER [ANAPC4_Y469]
Reply | 0.631

Ask | Please indicate recorded phosphorylation enrichment of VKYLGYPPPEI [KDR_Y357_A352V] measured with c-Abl (mouse).
Reply | 0.796

Ask | Quote c-Abl (mouse) phosphorylation enrichment for entry YHRQLYHKCTH [F12_Y58] .
Reply | 0.641

Ask | Answer briefly: phosphorylation enrichment recorded on c-Abl (mouse) for TLQRMYGCDVG [HLA-B_Y123_S121R]
Reply | 0.816

Ask | Report the value of phosphorylation enrichment obtained on c-Abl (mouse) for SSREGYVRHHN [FAM83B_Y433_S435R] .
Reply | 0.451

Ask | # return phosphorylation enrichment of HNVPICEGYAL [ACTC1_Y168_Y168C] (system: c-Abl (mouse))
Reply | 0.652

----------
- Study target: EPHB1 (UniProt P54762)
- Sequence (P54762 whole entry, looked up): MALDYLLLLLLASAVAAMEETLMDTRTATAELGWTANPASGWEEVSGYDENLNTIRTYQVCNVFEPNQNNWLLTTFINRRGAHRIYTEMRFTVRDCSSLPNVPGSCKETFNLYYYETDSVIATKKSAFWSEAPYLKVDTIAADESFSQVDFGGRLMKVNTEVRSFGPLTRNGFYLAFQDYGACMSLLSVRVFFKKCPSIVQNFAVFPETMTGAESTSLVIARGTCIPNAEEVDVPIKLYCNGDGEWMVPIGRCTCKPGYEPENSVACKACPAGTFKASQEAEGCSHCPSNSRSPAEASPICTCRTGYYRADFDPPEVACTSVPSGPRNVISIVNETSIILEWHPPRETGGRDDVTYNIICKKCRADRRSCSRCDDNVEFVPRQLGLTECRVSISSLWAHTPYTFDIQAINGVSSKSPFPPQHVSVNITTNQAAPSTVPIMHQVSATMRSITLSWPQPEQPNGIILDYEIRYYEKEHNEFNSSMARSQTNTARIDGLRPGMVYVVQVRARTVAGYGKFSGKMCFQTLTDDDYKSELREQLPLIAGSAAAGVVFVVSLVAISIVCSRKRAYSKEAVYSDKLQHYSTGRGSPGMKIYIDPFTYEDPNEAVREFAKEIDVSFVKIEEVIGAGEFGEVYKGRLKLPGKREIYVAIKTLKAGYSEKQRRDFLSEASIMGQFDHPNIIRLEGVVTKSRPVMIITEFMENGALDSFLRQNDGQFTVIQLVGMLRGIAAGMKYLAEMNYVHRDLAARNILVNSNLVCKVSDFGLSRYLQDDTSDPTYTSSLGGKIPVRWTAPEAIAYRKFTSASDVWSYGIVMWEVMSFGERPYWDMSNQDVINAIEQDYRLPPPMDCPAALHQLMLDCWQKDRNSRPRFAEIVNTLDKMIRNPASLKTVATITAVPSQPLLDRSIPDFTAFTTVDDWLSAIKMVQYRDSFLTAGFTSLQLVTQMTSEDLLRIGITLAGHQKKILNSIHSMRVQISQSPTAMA
- Assay: phosphorylation enrichment, bacterial display (enrichment ratio); higher = better substrate or ligand; peptides without Tyr show the background
Where phosphorylation enrichment equals or exceeds 0.5, the correct label is t; where it does not, the label is f.

Some entries whose results are on file:
YHRQLYHKCTH [F12_Y58] : f
EKKKFYDAKIE [CASP5_Y104_T106A_YF] : f
QMVGMYASSSM [AVPR2_Y124_Y128S] : t
CSTIHYNYMCN [TP53_Y234_T230S] : t
EEALYYLTRVE [SET_Y119_H118Y] : t
GCRSKYVGLWR [KCNQ1_Y184_G189R] : f
TPRNTYKMTSV [MKI67_Y849_L854V] : t
EFHRLYEEFTR [PIK3R1_Y467_D464H_YF] : t
SYTDPYAQPPL [KMT2D_Y2378] : t
SLFNGYVYSGV [NEIL3_Y71] : t

Ask | Check this sequence for phosphorylation enrichment at or above 0.5: ARVDTYCRHNY [HLA-DRB1_Y107_A103R]
Reply | t

Ask | Is phosphorylation enrichment at least 0.5? Consider GDPTEYYITAI [IGSF22_Y501_S503I]
Reply | t

Ask | Hi team, for HVKHNYECLVF [XRCC5_Y416_I412V_YF] , is the recorded phosphorylation enrichment at or above 0.5?
Reply | t

Ask | Does the sequence AVLALHNSTRD [TGFB1_Y81_Y81H] have recorded phosphorylation enrichment that is 0.5 or more?
Reply | f

Ask | Has TINPIHEHVGY [CHN1_Y143_Y143H] a recorded phosphorylation enrichment greater than or equal to 0.5?
Reply | t

Ask | Dear colleague, could you confirm whether KVALLYKPYFY [POLE_Y100_P99L] has phosphorylation enrichment at or above 0.5?
Reply | t

Ask | Decide: phosphorylation enrichment of LTMAPYSSVSL [FAM81A_Y24] >= 0.5?
Reply | f

Ask | In plain terms: is recorded phosphorylation enrichment at least 0.5 for RALRHYFKLNI [ETV6_Y401_YF] ?
Reply | f

Ask | Please check the record IVAREYFSKAD [CAMK2B_Y107_E110K_YF] and state if its phosphorylation enrichment is at or above 0.5.
Reply | f

Ask | Record GGDGSYVSVPL [TNNI3K_Y425_S430L] ; criterion: phosphorylation enrichment no lower than 0.5. Met?
Reply | f

Ask | Is it the case that INNIDYFKKTT [FGFR2_Y656_YF] has phosphorylation enrichment reaching or exceeding 0.5?
Reply | f

Ask | Answer whether phosphorylation enrichment of TLSGIYQFNIA [FOXL2_Y81_I84N_YF] is greater than or equal to 0.5.
Reply | t

Ask | Given EDKFMYLEFPQ [PTEN_Y240_F241L] , state whether its phosphorylation enrichment is at least 0.5.
Reply | t

Ask | Reported phosphorylation enrichment reaches at least 0.5 for GAVDTYCRHNY [HLA-DRB1_Y107_A102G] ?
Reply | f

Ask | Hi team, for TKVTFYKQPMF [GBA_Y451_D448V] , is the recorded phosphorylation enrichment at or above 0.5?
Reply | f

Ask | Does the sequence SIKDKYVMALF [KCNH2_Y611_T613M_YF] have recorded phosphorylation enrichment that is 0.5 or more?
Reply | f

Ask | Form field: phosphorylation enrichment at least 0.5? Entry: ETEMLYGSARR [PRC1_Y464_P468R]
Reply | f

Ask | Form field: phosphorylation enrichment at least 0.5? Entry: TTKAKYKTPIF [PLD2_Y573_T577I_YF]
Reply | f

----------
- Study target: MERTK (UniProt Q12866)
- Sequence (Q12866 whole entry, looked up): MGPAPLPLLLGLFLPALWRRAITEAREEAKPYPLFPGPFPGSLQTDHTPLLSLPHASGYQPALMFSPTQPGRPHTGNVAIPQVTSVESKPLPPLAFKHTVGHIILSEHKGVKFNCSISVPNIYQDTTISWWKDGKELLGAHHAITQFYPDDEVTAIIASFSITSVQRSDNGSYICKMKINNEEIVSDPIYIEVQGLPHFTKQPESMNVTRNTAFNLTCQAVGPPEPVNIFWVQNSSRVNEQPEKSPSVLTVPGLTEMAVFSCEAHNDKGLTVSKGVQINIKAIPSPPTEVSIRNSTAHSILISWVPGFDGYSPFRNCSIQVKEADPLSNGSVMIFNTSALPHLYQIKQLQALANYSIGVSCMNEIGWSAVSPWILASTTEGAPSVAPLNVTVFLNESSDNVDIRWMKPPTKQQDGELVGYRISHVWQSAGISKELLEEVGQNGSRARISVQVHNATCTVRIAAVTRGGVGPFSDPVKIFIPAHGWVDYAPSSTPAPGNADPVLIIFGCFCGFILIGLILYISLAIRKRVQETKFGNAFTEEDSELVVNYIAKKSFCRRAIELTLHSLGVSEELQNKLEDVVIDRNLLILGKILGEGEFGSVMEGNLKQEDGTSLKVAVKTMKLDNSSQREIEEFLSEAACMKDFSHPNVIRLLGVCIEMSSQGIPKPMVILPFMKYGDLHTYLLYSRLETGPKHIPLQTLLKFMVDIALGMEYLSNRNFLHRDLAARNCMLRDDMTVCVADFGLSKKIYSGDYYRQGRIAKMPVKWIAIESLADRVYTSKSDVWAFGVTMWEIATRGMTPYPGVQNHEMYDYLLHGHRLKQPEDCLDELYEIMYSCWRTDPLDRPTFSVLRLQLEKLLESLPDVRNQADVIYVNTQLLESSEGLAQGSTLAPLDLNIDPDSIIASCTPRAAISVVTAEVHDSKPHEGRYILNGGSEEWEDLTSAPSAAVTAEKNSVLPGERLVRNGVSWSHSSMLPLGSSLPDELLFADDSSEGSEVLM
- Assay: phosphorylation enrichment, bacterial display (enrichment ratio); higher = better substrate or ligand; peptides without Tyr show the background
Reported property: phosphorylation enrichment
Lab note: write the figure by itself, no unit.

Before answering, review these 2 worked examples.
DDEVFYSPRSL [OTC_Y317] : 0.592
TTEHIYGDNFF [UBA7_Y524] : 0.597

Now look at this entry.
Ask | Specify measured phosphorylation enrichment for KQELVYTNKKL [OPTN_Y356] .
Reply | 0.594

----------
- Study target: c-Src SH2
- Assay: SH2 binding enrichment of the phosphorylated peptide, bacterial display (enrichment ratio); higher = better substrate or ligand; peptides without Tyr show the background
So basically: SH2 binding enrichment at 0.5 or higher? That is true. Lower than 0.5? That is false.

Recorded results for 5 sequences are shown here.
YADGVYQALEE [DUOX2_Y70] : true
QGGRCYMMIVD [GAA_Y438_R437C] : true
SLALFYRKVYH [RBL1_Y792] : true
LTTPTYGDLNH [TUBB_Y222] : true
VFSSDYFSFVL [USP24_Y2138_YF] : false

Ask | Identify whether the reported SH2 binding enrichment of the following sequence is 0.5 or greater: ALADKYHGGGG [HBB_Y146_H144D]
Reply | false

Ask | Hi team, for ISIFRYAKGQP [MPZ_Y82_H81R] , is the recorded SH2 binding enrichment at or above 0.5?
Reply | true

Ask | // inclusive: SH2 binding enrichment at least 0.5? input: QYNPEYVQQAS [LRRC7_Y1058_H1054Y]
Reply | false

----------
- Study target: MERTK (UniProt Q12866)
- Assay: phosphorylation enrichment, bacterial display (enrichment ratio); higher = better substrate or ligand; peptides without Tyr show the background
The following sequences are listed with their measured phosphorylation enrichment values.
Give a plain numeric answer without units written out.

For orientation, consider the following solved cases.
CTTIHYNDMCN [TP53_Y234_Y236D] : 0.396
GVTLLYFGRFN [ADGRD1_Y85_YF] : 0.389

Next:
Ask | Answer with the recorded phosphorylation enrichment of NSRYTYKLEVK [USH2A_Y3747] only.
Reply | 0.396

----------
# SH2 binding enrichment listing for each entry below
- Study target: c-Src SH2;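 note: peptide library displayed on the E. coli surface as eCPX fusions, selected cells deep-sequenced, score is each peptide's frequency after selection divided by its frequency in the input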
- Assay: SH2 binding enrichment of the phosphorylated peptide, bacterial display (enrichment ratio); higher = better substrate or ligand; peptides without Tyr show the background
Please give the numeric answer without any surrounding text.

Consider the reported SH2 binding enrichment for these sequences:
PAIFTYDEFKK [COL8A2_Y648_T645I_YF] : 0.509
LVTAWYIGFLC [KCNQ2_Y237] : 0.622
SGKSEYLLPVA [MYLK_Y611_R607G] : 0.383
KSLFHYRQYSA [CPS1_Y1491] : 0.379
SRGSSYNSIPK [FLNC_Y2625_S2626N] : 0.559

Ask | Answer with reported SH2 binding enrichment of QLDQRYLLVPE [DDX49_Y223]
Reply | 0.763

----------
- Study target: Jak2 (UniProt O60674)
- Sequence (O60674 whole entry, looked up): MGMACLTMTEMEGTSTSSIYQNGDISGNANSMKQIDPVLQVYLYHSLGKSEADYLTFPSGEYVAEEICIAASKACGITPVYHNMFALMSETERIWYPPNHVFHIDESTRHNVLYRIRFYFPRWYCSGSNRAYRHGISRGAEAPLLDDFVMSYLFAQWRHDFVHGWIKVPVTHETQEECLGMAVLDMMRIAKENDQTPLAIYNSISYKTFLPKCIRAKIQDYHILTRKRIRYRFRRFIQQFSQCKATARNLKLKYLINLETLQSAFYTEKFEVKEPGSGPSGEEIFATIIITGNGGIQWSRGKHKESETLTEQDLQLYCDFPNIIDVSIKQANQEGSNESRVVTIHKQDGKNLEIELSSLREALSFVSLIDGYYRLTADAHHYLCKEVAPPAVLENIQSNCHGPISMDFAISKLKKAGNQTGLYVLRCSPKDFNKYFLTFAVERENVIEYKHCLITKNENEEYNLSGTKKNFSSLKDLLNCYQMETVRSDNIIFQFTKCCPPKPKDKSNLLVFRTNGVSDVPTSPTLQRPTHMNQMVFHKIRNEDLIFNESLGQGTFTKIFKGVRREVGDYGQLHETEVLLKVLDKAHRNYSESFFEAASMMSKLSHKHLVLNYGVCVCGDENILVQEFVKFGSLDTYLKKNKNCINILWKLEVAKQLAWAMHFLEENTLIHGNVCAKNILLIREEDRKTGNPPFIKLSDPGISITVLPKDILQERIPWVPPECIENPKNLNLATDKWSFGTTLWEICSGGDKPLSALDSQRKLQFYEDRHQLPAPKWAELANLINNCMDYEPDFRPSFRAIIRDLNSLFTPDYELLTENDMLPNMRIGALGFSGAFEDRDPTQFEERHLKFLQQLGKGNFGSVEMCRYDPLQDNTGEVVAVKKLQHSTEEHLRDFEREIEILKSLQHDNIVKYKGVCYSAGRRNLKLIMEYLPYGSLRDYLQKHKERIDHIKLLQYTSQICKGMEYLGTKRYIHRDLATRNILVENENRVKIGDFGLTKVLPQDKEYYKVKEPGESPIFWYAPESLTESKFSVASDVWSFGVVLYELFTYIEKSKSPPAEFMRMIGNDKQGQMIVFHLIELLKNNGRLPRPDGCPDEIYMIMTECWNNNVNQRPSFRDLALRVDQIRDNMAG
- Assay: phosphorylation enrichment, bacterial display (enrichment ratio); higher = better substrate or ligand; peptides without Tyr show the background
# key: entry, value: phosphorylation enrichment

These recorded examples may help you get a feel for the data.
CSTIHYNYMCN [TP53_Y234_T230S] : 0.656
RAHARYCADAR [ACOT4_Y52] : 0.533

Ask | Provide the reported phosphorylation enrichment (system: Jak2 (UniProt O60674)) for RQLEIYRASRP [ERCC4_Y594]
Reply | 0.535

Ask | Give phosphorylation enrichment for ELTTCYRKKCS [CCBE1_Y70_C75S] tested on Jak2 (UniProt O60674).
Reply | 1.12

Ask | Specify the recorded phosphorylation enrichment for QEIATYPRLLE [KRT14_Y415_R416P] , system: Jak2 (UniProt O60674).
Reply | 1.43

Ask | State recorded phosphorylation enrichment with Jak2 (UniProt O60674), entry NDFGNYNQQPS [HNRNPA2B1_Y306] , no comment.
Reply | 0.788

Ask | GET phosphorylation enrichment where system = Jak2 (UniProt O60674) and item = LIFVSYDDWDY [GRIN2A_Y281_S278F]
Reply | 2.22

The reported numbers originate from the supplement of paper PMC10065799.
